# ASSAYED SYSTEM: UniProtKB P00591
# Sequence (P00591 whole entry): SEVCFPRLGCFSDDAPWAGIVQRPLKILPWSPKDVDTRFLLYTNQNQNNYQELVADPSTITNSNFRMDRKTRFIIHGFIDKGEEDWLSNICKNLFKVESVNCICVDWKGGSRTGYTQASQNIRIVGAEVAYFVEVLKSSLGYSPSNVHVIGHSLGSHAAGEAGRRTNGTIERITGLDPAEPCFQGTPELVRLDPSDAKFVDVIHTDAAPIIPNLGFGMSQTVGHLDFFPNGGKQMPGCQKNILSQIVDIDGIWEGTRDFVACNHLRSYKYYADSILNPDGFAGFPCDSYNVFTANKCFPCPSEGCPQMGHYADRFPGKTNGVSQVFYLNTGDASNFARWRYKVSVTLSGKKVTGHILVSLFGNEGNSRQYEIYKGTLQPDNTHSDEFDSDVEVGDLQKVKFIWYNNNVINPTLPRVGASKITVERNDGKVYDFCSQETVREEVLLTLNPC
Below: compounds with IC50 recorded for UniProtKB P00591 in separate published works.

Here is how some compounds turned out for IC50.
COMPOUND: O=c1c(O[C@@H]2O[C@H](CO)[C@@H](O)[C@H](O)[C@H]2O)c(-c2ccc(O)c(O)c2)oc2cc(O)cc(O)c12
ASSAYED SYSTEM: UniProtKB P00591
IC50: > 70 µM
//
COMPOUND: O=c1c(O)c(-c2ccc(O)cc2O)oc2cc(O)cc(O)c12
ASSAYED SYSTEM: UniProtKB P00591
IC50: > 100 µM

Could you now look at the following compound, please?
Ask | Give IC50 for the following compound: COc1ccc(C2CCc3ccc(O)cc3O2)cc1O (stereo not drawn)
Reply | > 100 µM
